Recorded values, source PubChem BioAssay (NCI).

tested on: KM12 colon; assay: NCI-60 one-dose screen, 48 h (100 = growth as untreated, 0 = no growth, -100 = all killed); details: 10 µM unless noted
About 83,000 compounds went through this panel and 20% of them were active in at least one assay; those are over-represented in the sample as a whole.
Exercise: state measured growth for each of the compounds provided.
Lab book: enter the figure in %, no units written.

Lookup: Quick check: growth of `CCc1ccc(CCC(=O)Nc2ncc(Cc3ccccc3)s2)o1` ?
Found: 18.4

Lookup: Now this one: `O=C(CSc1nnc(-c2cc(-c3ccccc3)nc3ccccc23)n1-c1ccccc1)Nc1ccc(C(=O)/C=C/c2ccc(Cl)cc2)cc1`
Found: 75.4

Lookup: Now this one: `S=c1[nH]c(=S)c2c(-c3ccccc3)c(-c3ccccc3)oc2[nH]1`
Found: 102

Lookup: Now this one: `O=C(O)COc1ccc(Cl)c(Cl)c1`
Found: 110

Lookup: Now this one: `COc1ccc(C(=O)Cn2c(C(=O)c3ccc(Cl)cc3)nc3ccccc32)cc1`
Found: 38.2

---

Exercise: state measured growth for each of the molecules provided.
system: HS 578T breast; assay: NCI-60 one-dose screen, 48 h (100 = growth as untreated, 0 = no growth, -100 = all killed); conditions: 10 µM unless noted
This is part of a sample that, as a whole, favours compounds with a hit. Of some 83,000 tested, about 20% had one in any assay. Activity calls are given as the source filed them. Rule for the calls: active = growth percent below 10; inactive = the rest.

Lookup: Quick check: growth of Nc1nc(N)c2c(n1)NC(c1cccc(Nc3ccnc4cc(C(F)(F)F)ccc34)c1)CC(c1ccccc1)=N2 (stereo not given) ?
Found: 53.7% (inactive)

Lookup: Now this one: `c1nc2ccc(-c3cc4ccc5[nH]ncc5c4c4c3CCCC4)cc2[nH]1`
Found: 65.2% (inactive)

Lookup: Now this one: CC1C(/C=N/NC(N)=S)C(C#N)(C#N)C1(C#N)C#N (stereo not given)
Found: 91.7% (inactive)

Lookup: Now this one: `C#CCn1cnc2cnc(Nc3cccc(NC(=O)C=C)c3)nc21`
Found: 74.5% [6.25 µM] (inactive)

Lookup: Now this one: `Fc1cc(Nc2ccc3c(OCCCN4CCOCC4)cccc3n2)ccc1Cl`
Found: 40.1% (inactive)

Lookup: Now this one: `N#C/C(=C\c1ccc(-c2cccc(C(F)(F)F)c2)o1)c1ccccc1`
Found: 86.7% (inactive)

Lookup: Now this one: `CS(=O)(=O)Nc1cc(-c2ccc3ncc(C#N)c(Nc4ccc(F)c(Cl)c4)c3c2)cnc1Cl`
Found: -17.7% (active)

Lookup: Now this one: CC1=C(C(=O)Nc2ccccc2)C(c2ccc3c(c2)OCO3)NC(=S)N1 (stereo not given)
Found: 105% (inactive)

Lookup: Now this one: Cc1[nH]c(C2CC(c3ccc(C(F)(F)F)c(F)c3)=NN2c2ccccc2)c(C)c1C(=O)NCC(F)(F)F (stereo not given)
Found: 87% (inactive)

Lookup: Now this one: `CCOC(=O)C1=C(C)/C(=C\c2[nH]c(C)c(C(=O)OCC)c2C)N=C1C`
Found: 103% (inactive)

Lookup: Now this one: `CSc1nn2c(-c3ccc4ccccc4c3)ccnc2c1C#N`
Found: 33.6% (inactive)

Lookup: Now this one: `C=C1C(=O)O[C@H]2[C@H]1CC/C(COC(=O)/C=C/C(=O)OC/C1=C/CC[C@@]3(C)O[C@H]3[C@H]3OC(=O)C(=C)[C@@H]3CC1)=C\CC[C@@]1(C)O[C@@H]21`
Found: 90.2% (inactive)

Lookup: Now this one: `C#Cc1cccc(Nc2nc(C)nc3cc(NC(=O)CCl)ccc23)c1`
Found: -11.6% (active)

Lookup: Now this one: Nc1ncnc2c1N=C(c1ccc3c(c1)OCO3)CC(c1cccc(Nc3ccnc4cc(C(F)(F)F)ccc34)c1)N2 (stereo not given)
Found: 85.8% (inactive)

Lookup: Now this one: `C=CN(C(=O)N1CCN(c2cc3c(cc2F)c(=O)c(C(=O)O)cn3C2CC2)CC1)c1nc(-c2ccc(OC)cc2)cs1`
Found: 20.3% (inactive)

Lookup: Now this one: `COc1cccc(/C=C/C(=O)c2cccc(Nc3nc(Nc4ccccc4)nc(Nc4ccccc4)n3)c2)c1`
Found: 81.5% (inactive)

Lookup: Now this one: `Oc1ccc(/C=C/c2ccc(O)cc2)cc1`
Found: 61.3% (inactive)

Lookup: Now this one: `COc1ccc(CNc2c3ccccc3nc3ccccc23)c(OC)c1`
Found: 68.9% (inactive)

Lookup: Now this one: `CNC1=CC(=O)c2c(C(=O)OC)c(C)[n+]([O-])c(C)c2C1=O`
Found: 94.1% (inactive)

Lookup: Now this one: `c1ccc2c(c1)CCCc1nnc3nc4ccccc4n3c1-2`
Found: 77.1% (inactive)
